Values from the supplement of paper PMC9732359

protocol text: protein stability index of a GFP-peptide fusion (yeast GPS) (PSI 1-4); higher = more stable; sorted into four equal gates, so the index is relative within each strain
measurement parameters: doa10∆
reported endpoint: protein stability index

ARSIDVEKGVNPTKSKE [ECM29]
3.32
KENKKRKNFKMGPLYQN [IRR1]
1.33
KAMDIPIGRHEELLAQY [SWP82]
2.07
LYVLPSFNIPRLTFKPW [YMR129W/POM152]
2.2
DLIADTITNSSSSSDII [YML103C/NUP188]
2.89
EEEKSVDASPNDVTRRT [CSL4]
3.25
VLTRMDEDRSKKEEELG [SNF2]
3.51
VVDFLKRNGSTLEQKVN [FAS1]
2.83
IPSSYIKRTDEGGEAEF [ARP7]
3.4
LTIFDSVDESARIKDAF [YJL039C/NUP192]
3.01
QEDFEVVEEFTPVVLAT [RPS5]
3.1
VNKVPQNVAGDKTAVKL [SWP82]
2.71
NLTYYNEKLECISLGST [ITC1]
2.2
PIPIPAFADRLGQYVQA [PRE10]
2.21

---

This section presents sequences with their documented protein stability index values.
protocol text: protein stability index of a GFP-peptide fusion (yeast GPS) (PSI 1-4); higher = more stable; sorted into four equal gates, so the index is relative within each strain
measurement parameters: doa10∆
reported endpoint: protein stability index

VREFLEKNYDRKEPPAT [PRE6]
3.29
ISLSVHTLALEFVNGGK [RRP46]
2.49
VSKQLGNGLVDENKVEA [YAR002W/NUP60]
3.17
NPRKRAIPNSIIKRSNG [YMR153W/NUP53]
2.19
PFMLQWGIPLIKELRSK [FAS1]
1.69
LGDKELWPVAIGLIALS [YJR042W/NUP85]
1.57
EEHHEEEPSRVDPEQEA [RPT4]
3.09
SKEGQYKAKIKELENNL [YIL149C/MLP2]
2.75
ILTPESQLKKTKAQQKT [RPL7B]
2.86
ILTREVQNSTLAQLTSK [RPS1B]
2.14
EFGADWYKVAKNVGNKS [SWI3]
3.35
LEKIHSIEVQSLPEFFT [SWI3]
2.69
YQEDIFVSESPSFVKSG [ISW2]
2.85
VQGMNDDIFIRYLTLLS [ECM29]
1.37
QRVFKPVDITMMENYQN [PRP8]
2.43
SINISCVQLIKCLVEKS [SWI1]
1.78
LISRMIFIATQLEKKIR [BRR2]
1.75
IAPRRKRLADGLSVTQK [DIS3]
3.38
WEQLKITVVPVVAAAED [QCR6]
1.89
DPRNLVNQTGSTKKDTV [YCG1]
2.9
SSLFLDGLEKAAFNGVT [FAS2]
2.3
YLAKELNLTGPKVPEDI [RPN1]
3.26
GKQAIGAIAYNQFKRID [RET1]
2.27
DDYSNLKREERQGLIHQ [SMC3]
2.21
NDNEGKHISASIDNDFS [YAR002W/NUP60]
3.05
EYLFKPQLISDKFSPED [ARP7]
2.38
HPIRLYTRYLDRIYMLF [PRP8]
2.63
VYTAIYNYCVNKSRSSG [CDC53]
2.48
DVFNLLPNLGTPDDDEI [RPN8]
1.96
WSSEFAKWAPTLRTISF [SNF2]
2.36
